B1: Twister Ribozyme (parent)
chain: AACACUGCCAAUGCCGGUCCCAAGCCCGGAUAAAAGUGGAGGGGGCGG

# Variants of: B1
# Test description: self-cleavage, relative activity (ratio to wild type); higher = more cleavage; co-transcriptional
Please enter fulfilled where self-cleavage is greater than or equal to 0.1, and not fulfilled where it is lower.

Worked set:
1. C20U G44U :: fulfilled
2. C15A G17A :: not fulfilled
3. G13A A40G :: fulfilled
4. U12C A35G :: fulfilled
5. U37G G48U :: fulfilled

Query: Confirm if self-cleavage reported for the variant C15G G24U is 0.1 or above.
Response: not fulfilled

Query: Confirm if self-cleavage reported for the variant C5G A40G is 0.1 or above.
Response: fulfilled
